system: bacteria; experiment: Binding of targeting peptides to microorganisms (Table 3); conditions: peptide binding in aqueous buffers that varied depending on peptide solubility; preferably 1x PBS
property.measured: Target(s) (microorganisms bound by the targeting peptide)

Known Target(s) (microorganisms bound by the targeting peptide) results, listed for orientation:
| substance | result |
| --- | --- |
| PF-550 (STENGWQEFESYADVGVDPRRYVPL; Peptide with targeting and/or antimicrobial activity) | S. pneumoniae |
| PF-505 (GYTKDPGTGI; Peptide with targeting and/or antimicrobial activity) | S. mutans |
| PF-441 (TQVHKMARGIDPGPANGIYR; Peptide with targeting and/or antimicrobial activity) | C. jeikeium |
| PF-494 (FTEPLRPLQAKGQIISIKPSTSSS; Peptide with targeting and/or antimicrobial activity) | S. mutans |
| PF-594 (IVSAIV; Peptide with targeting and/or antimicrobial activity) | C. jeikeium |

[in] Any idea what Target(s) (microorganisms bound by the targeting peptide) was measured for PF-552 (ELDKADAALGPAKNLAPLDVINRS; Peptide with targeting and/or antimicrobial activity) ?
[out] S. pneumoniae

[in] Value lookup for Target(s) (microorganisms bound by the targeting peptide); key = PF-502 (NKGKQMQDQTGKQPIVDNG; Peptide with targeting and/or antimicrobial activity)
[out] S. mutans

[in] Quick check: Target(s) (microorganisms bound by the targeting peptide) of PF-486 (MQKEGEEDY; Peptide with targeting and/or antimicrobial activity) ?
[out] S. mutans

[in] Data request, read-out Target(s) (microorganisms bound by the targeting peptide), for PF-489 (KVDRVSTTITEKIK; Peptide with targeting and/or antimicrobial activity)
[out] S. mutans

[in] Requested field: Target(s) (microorganisms bound by the targeting peptide). Item: PF-593 (MEISTLKKEKLHVKDELSQYLANYKK; Peptide with targeting and/or antimicrobial activity)
[out] C. jeikeium

---

test system: microorganisms; test: Morphology, biofilm and growth disruption by peptides (Table 5); format: cell-based; parameters: key: A: Peptide aggregates; B: Less hyphal formation; Clumps; Diffuse clumps and small polyps; F: Diffuse growth; H: Thin; I: Growth inhibition; Microcolony formation; Rippled; Small polyps; Thick; W: Halo formation on top, microlonies on bottom; details: F. nucleatum
property.measured: Organism, effect (morphology, biofilm and growth disruption)

Reference set (8 entries):
| substance | result |
| --- | --- |
| PF-C065 (DEERYSDSYFLKEKVFYLILALFLILFHQKYLYFLEIITI; Peptide with targeting and/or antimicrobial activity) | F. nucleatum (T) |
| PF-C084 (FFSVIFLFGLNYLICNSPLFNILR; Peptide with targeting and/or antimicrobial activity) | F. nucleatum (T) |
| PF-C214 (GGHKQLVIEPLVSQ; Peptide with targeting and/or antimicrobial activity) | F. nucleatum (T) |
| PF-C145 (YGKESDP; Peptide with targeting and/or antimicrobial activity) | F. nucleatum (C) |
| PF-C071 (QVIVKIL; Peptide with targeting and/or antimicrobial activity) | F. nucleatum (T) |
| PF-C143 (VVFGGGDRLV; Peptide with targeting and/or antimicrobial activity) | F. nucleatum (C) |
| PF-C135 (KNTHAYLRVLRLSSLILSYQASVYPLFAYLCQQKDY; Peptide with targeting and/or antimicrobial activity) | F. nucleatum (C) |
| PF-C137 (QRMYWFKRGFETGDFSAGDTFAELK; Peptide with targeting and/or antimicrobial activity) | F. nucleatum (T) |

[in] // query Organism, effect (morphology, biofilm and growth disruption) value for entry PF-C061 (TLNYKKMFFSVIFLLGLNYLICNSPLFFKQIEF; Peptide with targeting and/or antimicrobial activity)
[out] F. nucleatum (T)

[in] Look up Organism, effect (morphology, biofilm and growth disruption) for this substance: PF-C062 (PLARATEVVATLFIICSLLLYLTR; Peptide with targeting and/or antimicrobial activity)
[out] F. nucleatum (T)

[in] Can you look up the measured Organism, effect (morphology, biofilm and growth disruption) of PF-C095 (LLALNMNEDTYYFELFFIFDNQNKKWLIFDLKERG; Peptide with targeting and/or antimicrobial activity) for me?
[out] F. nucleatum (T)

[in] Consider the substance NTNDLLQAFELMGLGMAGVFIVLGILYIVAELLIKIFPVNN [PF-C194] and give its measured Organism, effect (morphology, biofilm and growth disruption).
[out] F. nucleatum (T)

[in] Can you share its Organism, effect (morphology, biofilm and growth disruption)? I mean this substance: PF-C091 (ASNTPRFVRLTLFNFYSKIWNVTHLFLFNNL; Peptide with targeting and/or antimicrobial activity)
[out] F. nucleatum (T)
